# tgt: Cytochrome P450 2D6 (Homo sapiens) (UniProt P10635)
# Sequence (P10635 whole entry, looked up): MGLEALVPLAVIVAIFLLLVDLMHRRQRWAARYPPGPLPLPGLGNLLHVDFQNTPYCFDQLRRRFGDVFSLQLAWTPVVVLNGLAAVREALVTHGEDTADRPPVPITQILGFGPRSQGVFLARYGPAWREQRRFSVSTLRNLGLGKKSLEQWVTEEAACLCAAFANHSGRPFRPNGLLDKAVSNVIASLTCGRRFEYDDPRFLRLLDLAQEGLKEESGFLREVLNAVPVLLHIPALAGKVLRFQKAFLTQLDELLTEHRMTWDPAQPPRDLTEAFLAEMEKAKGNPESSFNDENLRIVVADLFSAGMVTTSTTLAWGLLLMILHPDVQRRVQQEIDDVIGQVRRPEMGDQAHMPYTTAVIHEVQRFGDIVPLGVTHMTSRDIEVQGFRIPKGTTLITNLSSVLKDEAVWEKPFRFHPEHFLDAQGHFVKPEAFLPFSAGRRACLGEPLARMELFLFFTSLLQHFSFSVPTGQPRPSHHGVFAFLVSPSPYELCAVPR
# protocol description: Cytochrome P450 family 2 subfamily D member 6 (CYP2D6) small molecule antagonists: luciferase biochemical (cell-free) qHTS assay (AID 1645840); note: nearly all actives have a fitted effect of over 55% in size; note: potency is the fitted concentration of half-maximal effect
# condition label: P450-Glo CYP2D6 enzyme, luciferin luminescence, 1 h; series mostly up to 57.4 µM
Results filed as inconclusive are left out. Activity calls are given as the source filed them. Calls come from the whole dose curve; as a rule, active = well fitted inhibition curve with a large enough effect in the repeat runs; inconclusive = weak or mixed curves; inactive = flat fitted curve, though single readings scatter.

| compound | tgt | Potency |
| --- | --- | --- |
| Cc1[nH]c(/C=C2\C(=O)Nc3cc(-c4ccccc4)ccc32)c(C)c1CCC(=O)O | Cytochrome P450 2D6 (Homo sapiens) (UniProt P10635) | inactive |
| O=C1c2ccc(Nc3ccc(F)cc3F)cc2CCc2ccc(OCC(O)CO)cc21 (stereo not given) | Cytochrome P450 2D6 (Homo sapiens) (UniProt P10635) | 26.8 µM (active) |
| CCOc1ccc(S(=O)(=O)N2CCCCCC2)c2ccccc12 | Cytochrome P450 2D6 (Homo sapiens) (UniProt P10635) | inactive |
| COc1cc2ncnc(Nc3cccc(I)c3)c2cc1OC | Cytochrome P450 2D6 (Homo sapiens) (UniProt P10635) | 12 µM (active) |
| O=C(Nc1ccccc1)c1ccc(Nc2nnc(-c3ccc(O)cc3)c3ccccc23)cc1 | Cytochrome P450 2D6 (Homo sapiens) (UniProt P10635) | inactive |
| O=C(NCCCN1CCC2(CC1)OCc1ccccc12)[C@H]1CCCN1Cc1ccccc1 | Cytochrome P450 2D6 (Homo sapiens) (UniProt P10635) | 2.13 µM (active) |
| Cc1cc(C(=O)Nc2cc(Nc3ccc4c(/C=C/c5ccccn5)n[nH]c4c3)ccc2F)n(C)n1 | Cytochrome P450 2D6 (Homo sapiens) (UniProt P10635) | 7.56 µM (active) |
| O=P(O)(O)OC(CO)CO | Cytochrome P450 2D6 (Homo sapiens) (UniProt P10635) | inactive |
| Clc1cccc(COc2cncc(N3CCNCC3)n2)c1 | Cytochrome P450 2D6 (Homo sapiens) (UniProt P10635) | 8.49 µM (active) |
| CNCCCC1(c2ccccc2)OC(C)(C)c2ccccc21 (stereo not given) | Cytochrome P450 2D6 (Homo sapiens) (UniProt P10635) | 6.74 µM (active) |
